- assayed.system: Renilla luciferase (Renilla reniformis)
- assay.remarks: biochemical
- Assay type: biochemical
- experimental.parameters: 0.5% detergent in Renilla Luciferase Assay Reagent; read-out: Retained Renilla Luciferase Luminescence (%)
hey, just use 1 if measured remaining activity at 0.5 % is less than 20%, otherwise 0

Use these answered entries as a reference point.
CCCCCCCCCCCC[N+](C)(C)C.[Br-] [Dodecyltrimethylammonium bromide]: 1
CCCCCCCCCCCCCCCC[N+](C)(C)C.[Cl-] [Cetyltrimethylammonium chloride]: 1
[Br-].c1ccc([P+](c2ccccc2)(c2ccccc2)c2ccccc2)cc1 [Tetraphenylphosphonium bromide]: 0

Please determine if C[C@H](CCC(=O)NCCS(=O)(=O)O)[C@H]1CC[C@H]2[C@@H]3CC[C@@H]4C[C@H](O)CC[C@]4(C)[C@H]3CC[C@]12C [Taurolithocholic acid] is below 20% in terms of remaining activity at 0.5 %. 0

Find out if reported remaining activity at 0.5 % for C[N+](C)(C)CCCBr.[Br-] [(3-Bromopropyl)trimethylammonium bromide] is less than 20% 0

Criterion: remaining activity at 0.5 % strictly below 20%. Is it met by CCCCCCCCCCCCCC[N+](C)(C)Cc1ccccc1.[Br-] [Benzyldimethyltetradecylammonium bromide] ? 1

Field: below-cutoff. Rule: recorded remaining activity at 0.5 % strictly less than 20%. Subject: CCCCC[N+](CCCCC)(CCCCC)CCCCC.[Br-] [Tetrapentylammonium bromide] 0

----------
Consider the following molecules and their measured remaining activity at 153 µM readings.
- assayed.system: Renilla luciferase (Renilla reniformis, UniProt P27652)
- Sequence (P27652 1-311): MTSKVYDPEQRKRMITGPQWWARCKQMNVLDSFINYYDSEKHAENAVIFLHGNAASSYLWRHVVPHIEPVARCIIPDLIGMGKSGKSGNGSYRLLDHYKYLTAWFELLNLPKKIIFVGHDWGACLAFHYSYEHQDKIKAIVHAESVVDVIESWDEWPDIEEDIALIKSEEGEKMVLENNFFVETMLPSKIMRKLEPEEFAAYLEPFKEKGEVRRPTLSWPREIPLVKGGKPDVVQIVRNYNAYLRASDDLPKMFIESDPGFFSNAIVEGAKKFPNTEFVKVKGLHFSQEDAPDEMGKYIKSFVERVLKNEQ
- assay.remarks: Non-detergent compound screen, Renilla luciferase (Example 6)
- Type: biochemical
- experimental.parameters: inhibitor 153 μM; 0.5% Tergitol NP-9, 0.03% BDDABr; read-out: Retained Renilla Luciferase Value (%)
Remember to put the unit after the number in your answer.

Check out these entries, answers already filled in.
C=C(C(=O)NCc1ccc(OC)cc1)c1ccc2oc(=O)cc(C)c2c1: 98%
C=C(C(=O)NCc1ccc(OC)cc1)c1ccc2ncccc2c1: 90%
COc1ccc(COC(=O)/C=C/c2ccc3[nH]cc(CCN(C)C)c3c2)cc1: 98%

C=C(C(=O)NCc1ccc(OC)cc1)c1ccc2[nH]ccc2c1 yielded remaining activity at 153 µM of 95%

Sample CCCCCCNC(=O)/C=C/c1ccc2[nH]cc(CCN(C)C)c2c1 ; remaining activity at 153 µM observed: 99%

----------
- assayed.system: Renilla luciferase (Renilla reniformis)
- assay.remarks: Detergent titration with Tergitol NP-9, digitonin or no lysing agent, Renilla luciferase (Example 4)
- Type: biochemical
- experimental.parameters: 0.0500% detergent; Dig
reported.property: Selective Inhibition (Ff Luc Inh/Ren Luc Inh)
No unit in the answer, only the number.

CCCCCCCCCCCCCCCC[N+](C)(C)C.[Cl-] [Cetyltrimethylammonium chloride]: 1395

Short answer for CCCCC[N+](CCCCC)(CCCCC)CCCCC.[Br-] [Tetrapentylammonium bromide] : Selective Inhibition (Ff Luc Inh/Ren Luc Inh) was 2.9

# compound CCCCCCCCCCCC[N+](C)(C)C.[Br-] [Dodecyltrimethylammonium bromide] ; its Selective Inhibition (Ff Luc Inh/Ren Luc Inh) = 98

Record CCCCCCCCCCCCCC[N+](C)(C)Cc1ccccc1.[Br-] [Benzyldimethyltetradecylammonium bromide] . Reported Selective Inhibition (Ff Luc Inh/Ren Luc Inh): 60

Lab note: measured Selective Inhibition (Ff Luc Inh/Ren Luc Inh) of CCCCCCCCCCCC[N+](C)(C)Cc1ccccc1.[Br-] [Benzyldimethyldodecylammonium bromide] was 1575

The compound Cc1cc(C)c(C[N+](C)(C)C)cc1C.[Br-] showed Selective Inhibition (Ff Luc Inh/Ren Luc Inh) equal to 47
